target: Claudin18.2-His protein (human); experiment: indirect ELISA on coated Claudin18.2-His
Kindly apply the following: criterion met if EC50 is less than 0.04 mg/L, criterion not met in every other case.

[in] Hello, I'm reviewing records and need to know if EC50 of 395B3C11 (antibody, V domains shown) VH: DVQLVESGGGLVQPGGSRKLSCAASGFTFSGFGMHWIRQTPEKGLEWVAYISSGSRPIYYADTVQGRFTISRDNPKNTLFLQMTSLRSEDTAMYFCARFYYGNSFDHWGQGTLVTVSS VL: DIVMTQSPSFLTVTAGEKVTMSCKSSQSLLNSGNQKNYLTWYQQKPGQPPKLLIYWASTRESGVPDRFTGSGSGTDFTLTISSVQAEDLALYYCQNAYSFPLTFGAGTKLELK is below 0.04 mg/L. Could you check?
[out] criterion met

[in] Hello, I'm reviewing records and need to know if EC50 of 417A6F11 (antibody, V domains shown) VH: EVQLQQSGPELVKPGASMKISCKASGYSFTGYTMNWVKQSHGKNLEWIGLINPYNGGTSYNQKFKGKATLTVDKSSSTAYMELLSLTSEDSAVYYCARGDYWGQGTTLTVSS VL: DIVMTQSPSSLTVTAGEKVTMSCKSSQSLLNSGNQKNYLTWYQQKPGQPPKLLIYWASTRESGVPDRFTGSGSGTDFTLTISSVQAEDLAVYYCQNDYSYPTFGAGTKLELK is below 0.04 mg/L. Could you check?
[out] criterion not met

[in] Hello, I'm reviewing records and need to know if EC50 of 243B4F2 (antibody, V domains shown) VH: QAYLQQSGAELVRSGASVKMSCKASGYTFTSHNLHWVKQTPGQGLEWIGYIYPGNGNTNYNQKFKGKATLTADTSSSTAYMQISSLTSEDSAVYFCTRDYYGNSFAYWGQGTLVTVSA VL: DIVMTQSPSSLTEKAGERVSMSCKSSQSLFNSGNQKNYLTWYQQKPGQPPKLLIYWASTRESGVPDRFTGSGSGTDFTLTISSVQAEDLAVYYCQNNYWFPFTFGAGTKLELK is below 0.04 mg/L. Could you check?
[out] criterion met

[in] Hello, I'm reviewing records and need to know if EC50 of 425C6D3 (antibody, V domains shown) VH: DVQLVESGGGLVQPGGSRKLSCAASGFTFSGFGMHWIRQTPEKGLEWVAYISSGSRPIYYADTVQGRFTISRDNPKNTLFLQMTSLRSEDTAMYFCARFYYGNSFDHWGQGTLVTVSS VL: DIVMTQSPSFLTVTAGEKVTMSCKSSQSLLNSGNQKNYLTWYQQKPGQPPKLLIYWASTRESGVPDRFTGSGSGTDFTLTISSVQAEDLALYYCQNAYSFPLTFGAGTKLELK is below 0.04 mg/L. Could you check?
[out] criterion met

[in] Hello, I'm reviewing records and need to know if EC50 of 232F1E4 (antibody, V domains shown) VH: QVQLKESGPGLVAPSQSLSITCTVSGFALTTYGVSWVRQPPGKGLEWLGVIWGDGSTHYHSALISRLSIRKDNSKSQVFLKLNSLQTDDTATYYCAKPGRGNAMDYWGQGTSVTVSS VL: DIVMSQSPSSLTVTAGEKVTMSCKSSQSLLNSGNQKNYLTWYQQKPGQSPKLLIYWASTRESGVPDRFTGSGSGTDFTLTISSMQAEDLAVYYCQNDYIYPLTFGAGTMLELK is below 0.04 mg/L. Could you check?
[out] criterion not met

[in] Hello, I'm reviewing records and need to know if EC50 of 252F1B10 (antibody, V domains shown) VH: QAYLQQSGAELVRSGASVKMSCKASGYTFTSHNMHWVKQTPGQGLEWIGYIYPGNGGTNYNQKFKGKATLTADTSSSTAYMQINSLTSEDSAVYFCTRDYYGNSFAYWGQGTLVTVSA VL: DIVMTQSPSSLTEKAGERVSMSCKSSQSLFNSGNQKNYLTWYQQKPGQPPKLLIYWASTRESGVPDRFTGSGSGTDFTLTISSVQAEDLAVYYCQNDYRYPFTFGAGTKLELK is below 0.04 mg/L. Could you check?
[out] criterion met

[in] Hello, I'm reviewing records and need to know if EC50 of 421H4G3 (antibody, V domains shown) VH: DVQLVESGGGLVQPGGSRKLSCAASGFSFSGFGLHWIRQTPEKGLEWVAYISSGSRPIYYADTVKGRFTISRDNPKNTLFLQMTSLRSEDTAMYFCARFYFGNSFDHWGQGTLVTVST VL: DIVMTQSPSFLTVTAGEKVTMSCRSSQSLLNSGNQRNYLTWYQQKPGQPPKLLIYWASTRESGVPDRFTGSGSGTDFTLTINSVQAEDLALYYCQNAYSFPLTFGAGTKLELK is below 0.04 mg/L. Could you check?
[out] criterion met

[in] Hello, I'm reviewing records and need to know if EC50 of 61H12G10 (antibody, V domains shown) VH: QVQLKESGPGLVAPSQSLSITCTVSGFSLTDYGVSWIRQPPGKGLEWLGVIWGGGSTYYNSALKSRLIISKDNSKSQVFLKMNSLQTDDTAIYYCAKHHYGNACDYWGQGTTLTVSS VL: DIVMTQSPSSLTVTAGEKVTMSCKSSQSLFNSGNLKNYLTWYQQKPGQPPKLLICWASTRESGVPDRFTGSGSGTEFTLTISSVQAEDLAVYYCQNDYSYPFTFGSGTKLEIK is below 0.04 mg/L. Could you check?
[out] criterion met
